Target: fMet-Leu-Phe receptor (Homo sapiens) (UniProt P21462)
Sequence (P21462 whole entry, looked up): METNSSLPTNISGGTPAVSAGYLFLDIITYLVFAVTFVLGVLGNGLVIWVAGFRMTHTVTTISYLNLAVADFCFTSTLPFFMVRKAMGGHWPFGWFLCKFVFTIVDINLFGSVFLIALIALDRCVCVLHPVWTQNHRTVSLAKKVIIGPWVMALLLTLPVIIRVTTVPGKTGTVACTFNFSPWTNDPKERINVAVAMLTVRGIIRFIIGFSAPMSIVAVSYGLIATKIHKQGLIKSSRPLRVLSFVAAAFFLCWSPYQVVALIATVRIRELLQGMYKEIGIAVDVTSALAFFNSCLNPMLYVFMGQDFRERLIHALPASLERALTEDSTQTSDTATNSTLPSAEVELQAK
Assay: human FPR1 ligand displacement screen – cell-based, flow cytometry, SAR analysis, primary screen (AID 722)
Conditions: FPR-expressing cells, fluorescent ligand binding inhibition, stronger effect = higher value, concentration not given here
The whole screen tested about 1,300 compounds, of which about 40 (3%) were called active. The full list was thinned out, with actives kept by preference.

{"columns": ["compound", "target", "inhibition"],
 "data": [
  ["Cc1ccc(N2C(=O)C(=O)/C(=C(\\O)c3ccccc3)C2c2cccc(F)c2)cc1Br (centres undefined)", "fMet-Leu-Phe receptor (Homo sapiens) (UniProt P21462)", "30.2% (active)"],
  ["O=C(C1=C(O)C(=O)N(CCCN2CCOCC2)C1c1cccnc1)c1cc2ccccc2o1 (centres undefined)", "fMet-Leu-Phe receptor (Homo sapiens) (UniProt P21462)", "22.2% (inactive)"],
  ["CCCCCCOc1cccc(N2C(=O)C(=O)/C(=C(\\O)c3ccccc3)C2c2ccc(C(C)C)cc2)c1 (centres undefined)", "fMet-Leu-Phe receptor (Homo sapiens) (UniProt P21462)", "-11.9% (inactive)"],
  ["CCc1cc2c(=O)c(-c3nc4ccccc4s3)c(C)oc2cc1OC(C)=O", "fMet-Leu-Phe receptor (Homo sapiens) (UniProt P21462)", "4% (inactive)"],
  ["O=C(C1=C(O)C(=O)N(CCc2ccccc2)C1c1ccc(Cl)cc1)c1cccs1 (centres undefined)", "fMet-Leu-Phe receptor (Homo sapiens) (UniProt P21462)", "77.6% (active)"],
  ["COc1ccc(C2C(C(=O)c3cccs3)=C(O)C(=O)N2CCCn2ccnc2)cc1 (centres undefined)", "fMet-Leu-Phe receptor (Homo sapiens) (UniProt P21462)", "42.2% (active)"],
  ["O=C(C1=C(O)C(=O)N(CCc2ccccc2)C1c1ccc([N+](=O)[O-])cc1)c1cccs1 (centres undefined)", "fMet-Leu-Phe receptor (Homo sapiens) (UniProt P21462)", "-7.4% (inactive)"],
  ["O=C(C1=C(O)C(=O)N(CCCn2ccnc2)C1c1cccc(Br)c1)c1ccco1 (centres undefined)", "fMet-Leu-Phe receptor (Homo sapiens) (UniProt P21462)", "0.3% (inactive)"],
  ["O=C(C1=C(O)C(=O)N(CCCn2ccnc2)C1c1cccnc1)c1ccco1 (centres undefined)", "fMet-Leu-Phe receptor (Homo sapiens) (UniProt P21462)", "33.2% (active)"]
]}

====

Biological target: fMet-Leu-Phe receptor (Homo sapiens) (UniProt P21462)
Experiment: human FPR1 ligand displacement screen – cell-based, flow cytometry, SAR analysis, primary screen (AID 722)
Details: FPR-expressing cells, fluorescent ligand binding inhibition, concentration not given here
Screen size: about 1,300 compounds; about 40 (3%) were called active. Rule as the data show it: active = inhibition above about 30%; inactive = the rest. The entries come from a sample that favours actives as a whole.
Outcome codes: active, inactive

{"columns": ["compound", "label.value"],
 "data": [
  ["CCOc1ccccc1C(=O)N(Cc1ccco1)Cc1ccco1", "inactive"],
  ["COc1ccc(Oc2c(C(F)(F)F)oc3cc(OC(=O)c4ccco4)ccc3c2=O)cc1", "inactive"],
  ["Cn1c(NCCO)nc2c1c(=O)n(Cc1cccc(F)c1)c(=O)n2C", "inactive"],
  ["CC(C)c1ccc(C2/C(=C(\\O)c3ccc(F)cc3)C(=O)C(=O)N2CCCN2CCOCC2)cc1 (stereo unspecified)", "inactive"],
  ["CCOC(=O)c1c(NC(=O)C2CCCC2)sc2c1CCC(CC)C2 (stereo unspecified)", "inactive"],
  ["COc1ccc(C2/C(=C(/O)c3ccccc3)C(=O)C(=O)N2Cc2ccccc2)c(OC)c1 (stereo unspecified)", "inactive"],
  ["COc1ccc(C2C(C(=O)c3cccs3)=C(O)C(=O)N2Cc2cccnc2)cc1 (stereo unspecified)", "inactive"],
  ["CC(=O)C1=C(O)C(=O)N(CCc2c(C)[nH]c3ccccc23)C1c1cccc(F)c1 (stereo unspecified)", "active"],
  ["CCCCCCOc1cccc(N2C(=O)C(=O)/C(=C(\\O)c3ccccc3)C2c2cccc(F)c2)c1 (stereo unspecified)", "active"],
  ["Cc1ccc(N2C(=O)CSC2c2ccc(C(C)C)cc2)cc1 (stereo unspecified)", "inactive"],
  ["COc1ccc(OC)c(C2C(C(=O)/C=C/c3ccccc3)=C(O)C(=O)N2CCCCCC(=O)O)c1 (stereo unspecified)", "inactive"],
  ["O=C1C(=O)N(Cc2cccnc2)C(c2ccc(Cl)cc2)/C1=C(\\O)c1ccccc1 (stereo unspecified)", "inactive"],
  ["CCN(C(=O)c1noc2c1CCCCC2)c1cccc(C)c1", "inactive"],
  ["CCOC(=O)c1c(NC(=O)c2cccnc2)sc2c1CCC(C(C)(C)C)C2 (stereo unspecified)", "inactive"],
  ["Cc1ccc(CN(Cc2ccco2)C(=O)c2cccc(C)c2)cc1", "inactive"],
  ["O=C(C1=C(O)C(=O)N(CC2CCCO2)C1c1cccs1)c1ccco1 (stereo unspecified)", "inactive"],
  ["COc1ccc(/C(O)=C2/C(=O)C(=O)N(CCc3c(C)[nH]c4ccccc34)C2c2ccc(Cl)cc2)cc1 (stereo unspecified)", "inactive"],
  ["COc1ccc(C(=O)Oc2ccc3c(=O)c(-c4ccc(OC)c(OC)c4)c(C(F)(F)F)oc3c2)cc1", "inactive"],
  ["CCc1c(C)nc2c(C#N)c[nH]n2c1=O", "inactive"],
  ["COc1ccc(-c2c(C(F)(F)F)oc3cc(OC(=O)c4ccc(C)cc4)ccc3c2=O)cc1OC", "inactive"],
  ["Cc1onc(-c2ccccc2Cl)c1C(=O)Oc1cccc(F)c1", "inactive"],
  ["Cc1[nH]n2c(=O)cc(Cc3ccccc3)nc2c1-c1ccccc1", "inactive"],
  ["CCCCN(Cc1ccco1)C(=O)c1noc2c1CCCCC2", "inactive"],
  ["COC(=O)c1c(NC(=O)c2ccc(C)cc2)sc(C)c1C", "inactive"],
  ["O=C1C(=O)N(CCN2CCOCC2)C(c2cccs2)/C1=C(\\O)c1ccc(S(=O)(=O)N2CCOCC2)cc1 (stereo unspecified)", "inactive"],
  ["CC(=O)C1=C(O)C(=O)N(CCc2c(C)[nH]c3ccccc23)C1c1cccc([N+](=O)[O-])c1 (stereo unspecified)", "inactive"],
  ["CCc1cc2c(=O)c(-c3nc4ccccc4[nH]3)c(C)oc2cc1OC(C)=O", "inactive"],
  ["CC(C)C(=O)N(Cc1ccco1)S(=O)(=O)c1cccc2cccnc12", "active"],
  ["CCc1cc2c(=O)c(-c3nc4ccccc4n3C)c(C)oc2c(CN2CCCCC2)c1O", "inactive"],
  ["CCc1ccc(CN(Cc2ccco2)C(=O)c2ccccc2)cc1", "inactive"],
  ["COc1ccc(-c2c(C(F)(F)F)oc3cc(OC(=O)c4ccco4)ccc3c2=O)cc1OC", "active"],
  ["Cc1cccc(N2C(=O)C(=O)/C(=C(/O)c3ccccc3)C2c2cccc(F)c2)c1 (stereo unspecified)", "inactive"],
  ["COc1cc(C2C(C(=O)c3cc4ccccc4o3)=C(O)C(=O)N2c2nnc(C)s2)ccc1O (stereo unspecified)", "inactive"],
  ["CC(C)c1ccc(C2/C(=C(\\O)c3ccccc3)C(=O)C(=O)N2Cc2cccnc2)cc1 (stereo unspecified)", "active"],
  ["Cc1ccc(C2/C(=C(/O)c3ccccc3)C(=O)C(=O)N2Cc2cccnc2)cc1 (stereo unspecified)", "inactive"],
  ["Cn1c(NCCO)nc2c1c(=O)n(Cc1ccc(F)cc1)c(=O)n2C", "inactive"],
  ["Cc1oc2cc(OCC(=O)O)ccc2c(=O)c1-c1ccc2c(c1)OCCO2", "inactive"],
  ["CCOC(=O)c1c(NC(=O)c2cc(F)c(F)cc2Cl)sc2c1CCC2", "inactive"],
  ["COc1ccccc1-c1c(C(F)(F)F)oc2cc(OC(=O)c3ccco3)ccc2c1=O", "active"],
  ["COCCCN1C(=O)C(=O)/C(=C(/O)c2ccccc2)C1c1ccc(C(C)C)cc1 (stereo unspecified)", "active"],
  ["Cc1cc(N2C(=O)CSC2c2ccccc2F)ccc1Br (stereo unspecified)", "inactive"]
]}
